Test system: P. aeruginosa K1033
Assay: In vitro MIC assay, P. aeruginosa K1033
Assay type: cell-based
Conditions: Pseudomonas aeruginosa, broth microdilution, 35° C., 18-24 hours
Please respond with reported MIC for every item in the list.

Which MIC is reported with P. aeruginosa K1033 for this entry: CN(C)c1cccc2c1CC1CC3[C@H](N(C)C)C(O)=C(C(N)=O)C(=O)[C@@]3(O)C(O)=C1C2=O (stereo partly shown) [Compound A] ?
0 to 21 mg/L

Which MIC is reported with P. aeruginosa K1033 for this entry: CC(=O)c1cc2c(c(N(C)C)c1)CC1CC3[C@H](N(C)C)C(O)=C(C(N)=O)C(=O)[C@@]3(O)C(O)=C1C2=O (stereo partly shown) [H] ?
22 to 43 mg/L

Which MIC is reported with P. aeruginosa K1033 for this entry: CC1CCN(Cc2cccc3c2CC2CC4[C@@H](N(C)C)C(O)=C(C(N)=O)C(=O)[C@@]4(O)C(O)=C2C3=O)CC1 (stereo partly shown) [K] ?
0 to 21 mg/L

Which MIC is reported with P. aeruginosa K1033 for this entry: CC(=O)c1cccc2c1C(=O)C1=C(O)[C@]3(O)C(=O)C(C(N)=O)=C(O)[C@@H](N(C)C)C3CC1C2 (stereo partly shown) [N] ?
0 to 21 mg/L

Which MIC is reported with P. aeruginosa K1033 for this entry: CC(=O)c1cccc2c1CC1CC3[C@@H](N(C)C)C(O)=C(C(N)=O)C(=O)[C@@]3(O)C(O)=C1C2=O (stereo partly shown) [I] ?
0 to 21 mg/L

Which MIC is reported with P. aeruginosa K1033 for this entry: CN(C)c1cc(C(=O)O)cc2c1CC1CC3[C@H](N(C)C)C(O)=C(C(N)=O)C(=O)[C@@]3(O)C(O)=C1C2=O (stereo partly shown) [D] ?
44 to 64 mg/L

Which MIC is reported with P. aeruginosa K1033 for this entry: NC(=O)C1=C(O)CC2CC3Cc4ccccc4C(=O)C3=C(O)[C@]2(O)C1=O (stereo partly shown) [F] ?
0 to 21 mg/L
